Test Target: GIRK1/4 (Homo sapiens, UniProt P48544+P48549)
Construct: expressed in transfected cells; host or cells: HEK-293
Sequence (P48549 whole entry): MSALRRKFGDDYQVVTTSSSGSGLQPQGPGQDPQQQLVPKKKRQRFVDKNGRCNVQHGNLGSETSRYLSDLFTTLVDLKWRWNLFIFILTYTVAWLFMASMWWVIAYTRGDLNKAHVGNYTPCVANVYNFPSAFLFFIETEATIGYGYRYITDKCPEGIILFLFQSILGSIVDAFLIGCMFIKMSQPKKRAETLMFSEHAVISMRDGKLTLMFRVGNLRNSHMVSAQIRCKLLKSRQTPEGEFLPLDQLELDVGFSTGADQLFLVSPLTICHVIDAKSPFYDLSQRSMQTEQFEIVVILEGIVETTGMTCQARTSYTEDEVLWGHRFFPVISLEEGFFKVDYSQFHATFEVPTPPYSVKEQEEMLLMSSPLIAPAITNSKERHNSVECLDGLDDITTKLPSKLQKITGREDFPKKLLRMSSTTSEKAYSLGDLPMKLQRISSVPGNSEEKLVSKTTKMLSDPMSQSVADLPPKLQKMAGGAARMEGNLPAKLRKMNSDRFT
Sequence (P48544 whole entry): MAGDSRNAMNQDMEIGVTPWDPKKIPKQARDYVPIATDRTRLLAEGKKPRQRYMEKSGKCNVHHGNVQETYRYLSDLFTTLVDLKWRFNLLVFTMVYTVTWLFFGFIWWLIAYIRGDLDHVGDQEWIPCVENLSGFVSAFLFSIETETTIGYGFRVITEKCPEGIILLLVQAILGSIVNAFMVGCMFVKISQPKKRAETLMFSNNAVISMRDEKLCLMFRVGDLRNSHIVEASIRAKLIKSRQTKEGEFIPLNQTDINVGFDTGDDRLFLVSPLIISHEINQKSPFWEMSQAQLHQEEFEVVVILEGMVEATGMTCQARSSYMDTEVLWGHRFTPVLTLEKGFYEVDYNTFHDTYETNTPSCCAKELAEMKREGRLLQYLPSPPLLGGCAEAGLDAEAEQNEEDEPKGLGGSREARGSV
Assay Comment: Thallium flux assay protocol (Examples 2 and 3), GIRK1/GIRK4 HEK-293 cells
Type: cell-based
Measurement Setup: Table 3, analogs 6 (ureas); triplicate determinations
Measure Name: EC50 (µM)
Give bare numbers, in µM.

Q) Please provide the recorded EC50 for Cc1ccc(NC(=O)Nc2cccc(C#N)c2)cc1S(=O)(=O)N(C)C , tested on GIRK1/4 (Homo sapiens, UniProt P48544+P48549).
A) 3.3

----------
Test Target: GIRK1/2 (Homo sapiens, UniProt P48051+P48549)
Sequence (P48051 whole entry, one chain of several): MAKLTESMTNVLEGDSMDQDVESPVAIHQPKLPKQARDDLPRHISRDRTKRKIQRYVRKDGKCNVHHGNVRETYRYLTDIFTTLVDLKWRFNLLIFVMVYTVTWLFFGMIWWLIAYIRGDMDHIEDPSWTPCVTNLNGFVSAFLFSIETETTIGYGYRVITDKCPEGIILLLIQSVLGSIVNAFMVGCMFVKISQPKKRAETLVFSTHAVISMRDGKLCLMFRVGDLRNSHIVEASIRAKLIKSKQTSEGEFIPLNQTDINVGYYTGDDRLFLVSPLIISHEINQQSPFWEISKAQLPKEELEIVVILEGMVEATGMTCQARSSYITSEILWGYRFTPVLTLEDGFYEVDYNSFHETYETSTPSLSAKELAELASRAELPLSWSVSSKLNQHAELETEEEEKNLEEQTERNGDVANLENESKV
Assay Comment: Thallium flux assay protocol (Examples 2 and 3), GIRK1/GIRK2 HEK-293 cells
Type: cell-based
Design: expressed in transfected cells; host or cells: HEK-293
Measurement Setup: Table 3, analogs 6 (ureas); triplicate determinations
Measure Name: pEC50
Give bare numbers, as −log10 of the molar value.

Q) Form field: reported pEC50 of Cc1ccc(NC(=O)Nc2ccc(C(F)(F)F)cc2)cc1S(=O)(=O)N(C)C
A) 4.82

----------
Assay Comment: In vivo pharmacokinetic study, IP in mice
Measurement Setup: male, C57 BL6, plasma; mouse, intraperitoneal 10 mg/kg, 30 min after administration; read-out: Plasma concentration
Measure Name: concentration at 30 min (nM)
Answers are plain numbers, in nM.

Q) Form field: reported concentration at 30 min of Cc1cc(NC(=O)Nc2ccc(F)c(F)c2)n(-c2ccccc2)n1 [VU0456810]
A) 2300

----------
Test Target: GIRK1/2 (Homo sapiens, UniProt P48051+P48549)
Assay Comment: Thallium flux assay, HEK-293 cells expressing GIRK1/2
Assay type: cell-based
Set-up: host or cells: HEK-293
Measurement Setup: confirmed GIRK activator of GIRK1/2, HTS hit; read-out: EC50
Source text: Cell Line Construction and Cell Culture. HEK-293 cells co-expressing human GIRK1/2 and rat mGlu8 were generated as previously described (Niswender et al., 2008). A HEK-293 cell line (ATCC, Manassas, Va.) expressing human GIRK1 and human GIRK2 was constructed by transfecting HEK-293 cells with GIRK1 and GIRK2 (Origene, Rockville, Md.) cloned into the pBudCE4.1 vector (Life Technologies, Carlsbad, Calif.) using FuGene 6 (Promega, Madison, Wis.) transfection reagent. […]
pEC50: −log10 of the molar value.
Measure Name: pEC50

Q) Form field: reported pEC50 of Cc1cc(NC(=O)Nc2ccccc2)n(-c2ccccc2)n1 [CID736191]
A) ~6.00

----------
Assay Comment: In vivo pharmacokinetic study, IP in mice
Measurement Setup: male, C57 BL6, plasma, ip; mouse, intraperitoneal 10 mg/kg
Measure Name: half-life (min)
Answers are plain numbers, in min.

Q) Form field: reported half-life of Cc1cc(NC(=O)Nc2ccc(F)c(F)c2)n(-c2ccccc2)n1
A) 20

----------
Test Target: hERG potassium channel (Homo sapiens)
Construct: expressed in transfected cells; host or cells: T-REx-293
Sequence (Q12809 whole entry): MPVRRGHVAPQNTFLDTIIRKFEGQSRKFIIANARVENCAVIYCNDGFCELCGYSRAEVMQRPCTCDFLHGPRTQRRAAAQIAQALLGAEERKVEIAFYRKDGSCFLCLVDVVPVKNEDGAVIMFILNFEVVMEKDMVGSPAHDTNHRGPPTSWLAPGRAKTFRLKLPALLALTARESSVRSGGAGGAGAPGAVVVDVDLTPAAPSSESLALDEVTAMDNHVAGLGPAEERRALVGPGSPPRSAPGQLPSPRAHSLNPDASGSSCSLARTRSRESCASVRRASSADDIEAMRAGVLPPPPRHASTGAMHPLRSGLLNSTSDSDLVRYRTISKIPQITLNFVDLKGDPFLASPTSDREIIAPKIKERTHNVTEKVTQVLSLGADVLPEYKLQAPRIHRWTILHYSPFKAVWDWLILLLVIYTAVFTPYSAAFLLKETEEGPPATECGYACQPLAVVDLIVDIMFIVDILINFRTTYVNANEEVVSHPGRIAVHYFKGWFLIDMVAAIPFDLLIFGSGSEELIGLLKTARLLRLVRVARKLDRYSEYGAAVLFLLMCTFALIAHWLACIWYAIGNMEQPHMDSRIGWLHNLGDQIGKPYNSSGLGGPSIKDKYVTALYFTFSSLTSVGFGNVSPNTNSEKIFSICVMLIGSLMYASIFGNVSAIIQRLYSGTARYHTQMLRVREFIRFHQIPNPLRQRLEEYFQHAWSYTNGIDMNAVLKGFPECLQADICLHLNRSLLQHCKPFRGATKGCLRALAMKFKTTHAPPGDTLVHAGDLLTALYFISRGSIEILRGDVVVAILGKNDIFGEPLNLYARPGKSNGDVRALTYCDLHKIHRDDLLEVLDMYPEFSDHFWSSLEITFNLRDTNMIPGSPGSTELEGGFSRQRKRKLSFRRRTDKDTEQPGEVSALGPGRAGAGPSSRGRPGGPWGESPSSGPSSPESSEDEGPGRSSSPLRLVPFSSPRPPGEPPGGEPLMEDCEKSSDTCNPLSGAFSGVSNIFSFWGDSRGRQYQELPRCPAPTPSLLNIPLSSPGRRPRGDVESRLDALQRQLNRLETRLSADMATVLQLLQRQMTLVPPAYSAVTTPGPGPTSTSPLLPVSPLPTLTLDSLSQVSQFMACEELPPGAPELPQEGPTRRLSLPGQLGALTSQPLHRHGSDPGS
Assay Comment: Thallium flux assay, hERG-expressing cells
Assay type: cell-based
Measurement Setup: hERG inhibition, thallium flux; read-out: IC50
Measure Name: IC50

Q) Please provide the recorded IC50 for Cc1cc(NC(=O)Nc2ccc(F)c(F)c2)n(-c2ccccc2)n1 [VU0456810] , tested on hERG potassium channel (Homo sapiens).
A) ~10 µM
